Cited source for all entries: ChEMBL document CHEMBL1138457

# Test system: Mus musculus
# Measurement Notes: Inhibition of chymotrypsin-like activity of 20S proteasome in BALB/c mouse adrenal gland at 10 mg/kg, po after 1 hr
# Format: functional
# Set-up: scale not given: the % may be the effect or the level left
Observable: Activity (%)
Express your answer in %, writing the number without its unit.

Smiles: COC[C@H](NC(=O)c1cc(OC)no1)C(=O)N[C@@H](COC)C(=O)N[C@@H](Cc1ccccc1)C(=O)[C@@]1(C)CO1
Target Entity: Mus musculus
Measured Value: 19

Q: Which value of Activity has been reported for CCOc1cc(C(=O)N[C@@H](COC)C(=O)N[C@@H](COC)C(=O)N[C@@H](Cc2ccccc2)C(=O)[C@@]2(C)CO2)no1 in the records?
A: 3

Q: Then Cc1cc(C(=O)N[C@@H](Cc2cscn2)C(=O)N[C@@H](Cc2ccccc2)C(=O)N[C@@H](CC(C)C)C(=O)[C@@]2(C)CO2)no1 ?
A: 63

###

# Species on record: Homo sapiens
# Measurement Notes: Ratio of Kinact to Ki for chymotrypsin-like activity of human 26S proteasome by spectrophotometry
# Set-up: unit not given here
Observable: Ratio

Smiles: CC(C)C[C@H](NC(=O)CN1CCOCC1)C(=O)N[C@@H](Cc1ccccc1)C(=O)N[C@@H](CC(C)C)C(=O)[C@@]1(C)CO1
Measured Value: 7900

Smiles: CC(C)C[C@H](NC(=O)c1cc(CN2CCOCC2)on1)C(=O)N[C@@H](Cc1ccccc1)C(=O)N[C@@H](CC(C)C)C(=O)[C@@]1(C)CO1
Measured Value: 28300

Smiles: Cc1cc(C(=O)N[C@@H](CC(C)C)C(=O)N[C@@H](Cc2ccccc2)C(=O)N[C@@H](CC(C)C)C(=O)[C@@]2(C)CO2)no1
Measured Value: 50900

Q: Which value of Ratio has been reported for COC[C@H](NC(=O)c1cc(C)on1)C(=O)N[C@@H](COC)C(=O)N[C@@H](CC(C)C)C(=O)[C@@]1(C)CO1 in the records?
A: 31800

Q: Then COC[C@H](NC(=O)c1cc(C)on1)C(=O)N[C@@H](Cc1ccccc1)C(=O)N[C@@H](CC(C)C)C(=O)[C@@]1(C)CO1 ?
A: 58600

###

# Measurement Notes: Chemical stability in simulated intestinal fluid assessed as compound remaining at 4 uM after 15 mins
# Format: physicochemical
# Assay Setup: read-out: Stability
Observable: remaining at 0.25 h, 4 µM (%)
Express your answer in %, writing the number without its unit.

Observe how each entry below is paired with its result.
Smiles: Cc1cc(C(=O)N[C@@H](CC(C)C)C(=O)N[C@@H](Cc2ccccc2)C(=O)N[C@@H](CC(C)C)C(=O)[C@@]2(C)CO2)no1
Observable: remaining at 0.25 h, 4 µM
Measured Value: 60

Smiles: Cc1cc(C(=O)N[C@@H](Cc2cscn2)C(=O)N[C@@H](Cc2ccccc2)C(=O)N[C@@H](CC(C)C)C(=O)[C@@]2(C)CO2)no1
Observable: remaining at 0.25 h, 4 µM
Measured Value: 20

Please look at the following molecule next.
Q: Which value of remaining at 0.25 h, 4 µM has been reported for COC[C@H](NC(=O)c1cc(CN2CCOCC2)on1)C(=O)N[C@@H](Cc1ccccc1)C(=O)N[C@@H](CC(C)C)C(=O)[C@@]1(C)CO1 in the records?
A: 80

###

# Measurement Notes: Solubility in ethanol-PS80 citrate buffer at pH 3.5 by HPLC analysis
# Format: physicochemical
Each entry below carries its reported solubility.
Express your answer in µg/mL, writing the number without its unit.

Smiles: COC[C@H](NC(=O)c1cc(C)on1)C(=O)N[C@@H](C)C(=O)N[C@@H](CC(C)C)C(=O)[C@@]1(C)CO1
solubility / µg/mL: 1240

Q: Which value of solubility has been reported for COC[C@H](NC(=O)c1cc(C)on1)C(=O)N[C@@H](COC)C(=O)N[C@@H](CC(C)C)C(=O)[C@@]1(C)CO1 in the records?
A: 5880

###

# Target Entity: Proteasome subunit beta type-8 (Homo sapiens, UniProt P28062)
# Sequence (P28062 whole entry): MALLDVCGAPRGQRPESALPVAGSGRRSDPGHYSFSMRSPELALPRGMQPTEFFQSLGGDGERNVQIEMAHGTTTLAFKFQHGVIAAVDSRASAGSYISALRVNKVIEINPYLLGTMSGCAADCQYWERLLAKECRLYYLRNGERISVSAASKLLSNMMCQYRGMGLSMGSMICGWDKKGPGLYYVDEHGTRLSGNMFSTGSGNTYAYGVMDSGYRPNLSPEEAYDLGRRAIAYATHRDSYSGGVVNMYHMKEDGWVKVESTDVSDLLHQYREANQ
Each entry below carries its reported pIC50.
The read-out pIC50 is expressed as -log10 of concentration in moles per litre.

Smiles: COC[C@H](NC(=O)c1cc(OC)no1)C(=O)N[C@@H](COC)C(=O)N[C@@H](Cc1ccccc1)C(=O)[C@@]1(C)CO1
Observable: pIC50
Measured Value: 7.44

Q: Which value of pIC50 has been reported for COC[C@H](NC(=O)c1ccon1)C(=O)N[C@@H](COC)C(=O)N[C@@H](Cc1ccccc1)C(=O)[C@@]1(C)CO1 in the records?
A: 7.03

Q: Then COC[C@H](NC(=O)c1ccon1)C(=O)N[C@@H](COC)C(=O)N[C@@H](CC(C)C)C(=O)[C@@]1(C)CO1 ?
A: 6.22

Q: Then COC[C@H](NC(=O)c1cc(C)on1)C(=O)N[C@@H](COC)C(=O)N[C@@H](CC(C)C)C(=O)[C@@]1(C)CO1 ?
A: 6.62

Q: Then CCOc1cc(C(=O)N[C@@H](COC)C(=O)N[C@@H](COC)C(=O)N[C@@H](Cc2ccccc2)C(=O)[C@@]2(C)CO2)no1 ?
A: 8.30

Q: Then CCOc1cc(C(=O)N[C@@H](COC)C(=O)N[C@@H](COC)C(=O)N[C@@H](CC(C)C)C(=O)[C@@]2(C)CO2)no1 ?
A: 7.39

Q: Then COC[C@H](NC(=O)c1cc(OC)no1)C(=O)N[C@@H](COC)C(=O)N[C@@H](CC(C)C)C(=O)[C@@]1(C)CO1 ?
A: 7.66

Q: Then COC[C@H](NC(=O)c1cc(C)on1)C(=O)N[C@@H](COC)C(=O)N[C@@H](Cc1ccccc1)C(=O)[C@@]1(C)CO1 ?
A: 7.68

###

# Measurement Notes: Toxicity in iv dosed BALB/c mouse xenografted with mouse CT26 cells assessed as maximum tolerated dose
# Format: organism-based
# Assay Setup: in vivo
Observable: MTD (mg/kg)
Express your answer in mg/kg, writing the number without its unit.

Q: Which value of MTD has been reported for CC(C)C[C@H](NC(=O)[C@H](CCc1ccccc1)NC(=O)CN1CCOCC1)C(=O)N[C@@H](Cc1ccccc1)C(=O)N[C@@H](CC(C)C)C(=O)[C@@]1(C)CO1 in the records?
A: 5

###

# Measurement Notes: Inhibition of chymotrypsin-like activity of 20S proteasome in human MOLT4 cells after 1 hr by […]
# Type: cell-based
# Assay Setup: MOLT-4, 1 h
Each entry below carries its reported log10 IC50.
Please keep in mind that the values are log10 of IC50 expressed in nM.

Smiles: COCC[C@H](NC(=O)c1cc(C)on1)C(=O)N[C@@H](Cc1ccccc1)C(=O)N[C@@H](CC(C)C)C(=O)[C@@]1(C)CO1
Measured Value: 1.84
--
Smiles: CC(C)C[C@H](NC(=O)c1ccn(C)n1)C(=O)N[C@@H](Cc1ccccc1)C(=O)N[C@@H](CC(C)C)C(=O)[C@@]1(C)CO1
Measured Value: 2.46
--
Smiles: CC(C)C[C@H](NC(=O)c1ncc[nH]1)C(=O)N[C@@H](Cc1ccccc1)C(=O)N[C@@H](CC(C)C)C(=O)[C@@]1(C)CO1
Measured Value: 2.43
--
Smiles: COC[C@H](NC(=O)c1cc(C)on1)C(=O)N[C@@H](CC(C)C)C(=O)N[C@@H](CC(C)C)C(=O)[C@@]1(C)CO1
Measured Value: 1.61
--
Smiles: CC(C)C[C@H](NC(=O)c1ccon1)C(=O)N[C@@H](Cc1ccccc1)C(=O)N[C@@H](CC(C)C)C(=O)[C@@]1(C)CO1
Measured Value: 1.70

Q: Which value of log10 IC50 has been reported for CC(C)C[C@H](NC(=O)[C@H](Cc1ccccc1)NC(=O)[C@H](Cc1ccncc1)NC(=O)c1cc(CN2CCOCC2)on1)C(=O)[C@@]1(C)CO1 in the records?
A: 1.15

Q: Then CCOc1cc(C(=O)N[C@@H](COC)C(=O)N[C@@H](COC)C(=O)N[C@@H](Cc2ccccc2)C(=O)[C@@]2(C)CO2)no1 ?
A: 0.48

###

# Measurement Notes: Solubility in ethanol-PS80 citrate buffer at pH 3.5 by HPLC analysis
# Format: physicochemical
Each entry below carries its reported solubility.
Express your answer in µg/mL, writing the number without its unit.

Smiles: Cc1cc(C(=O)N[C@@H](CC(C)C)C(=O)N[C@@H](Cc2ccccc2)C(=O)N[C@@H](CC(C)C)C(=O)[C@@]2(C)CO2)no1
solubility (µg/mL): 60
--
Smiles: CC(C)C[C@H](NC(=O)c1cc(CN2CCOCC2)on1)C(=O)N[C@@H](Cc1ccccc1)C(=O)N[C@@H](CC(C)C)C(=O)[C@@]1(C)CO1
solubility (µg/mL): 1480

Please look at the following compound next.
Q: Which value of solubility has been reported for COC[C@H](NC(=O)c1cc(C)on1)C(=O)N[C@@H](Cc1ccccc1)C(=O)N[C@@H](CC(C)C)C(=O)[C@@]1(C)CO1 in the records?
A: 750
